# assayText: Pharmacokinetic study in rat plasma after oral administration of FKQJF extract (UFLC–MS/MS)
# Type: in vivo, Sprague-Dawley (SD) rats
# conditionLabel: Sprague-Dawley, oral FKQJF extract, single dose 3.2 g/kg, mean ± SD, read-out: MRT0→t
# Description: Aliquots of 100 μL plasma samples were mixed with 10 μL I.S. samples (1 μg/mL, in MeOH), then added with 500 μL ACN, respectively, and vortexed for 5 min, centrifugated at 10,000 rpm for 10 min, the supernatants were transferred into clean vials and dried in a vacuum centrifugal concentrator at 1200 rpm, 37 °C. […] Data were analyzed using the Drug and Statistics (DAS) Software version 2.0 (DAS 2.0, Mathematical Pharmacology Professional Committee of China, Shanghai, China). […]
quantity: MRT last (h)

(I) O=C(O)c1ccccc1O [Analyte 8, salicylic acid]
(II) CCC/C=C1\OC(=O)C2=C1CCC=C2 [Analyte 18, Z-ligustilide]
query: Between the entries labelled I and II , which has a larger MRT last value on record? Give the label under which the chosen entry appears.
result: II
(II: 9.85 h, I: 2.88 h)
